- TARGET_SYSTEM: T1, HicB109-150 (C-terminal DNA-binding domain) (Streptococcus pneumoniae, UniProt A0A0H2URC7 109-150)
- T1 chain: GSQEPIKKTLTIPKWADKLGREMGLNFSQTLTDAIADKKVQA
- EXPERIMENT_NOTES: NMR titration
MEASURED_PROPERTY: Kd

Recorded Kd for hicBA promoter DNA, 28 bp (dsDNA) DNA 1: TAATAGAATAATAAGTATCACTCCTTTA DNA 2: TAAAGGAGTGATACTTATTATTCTATTA , please?
4.5 µM
